Items are presented alongside their recorded inhibition at 1 µM.
study.system: human α1D adrenergic receptor (Homo sapiens, UniProt P25100)
Construct: expressed in transfected cells; membrane fraction used
Sequence (P25100 whole entry): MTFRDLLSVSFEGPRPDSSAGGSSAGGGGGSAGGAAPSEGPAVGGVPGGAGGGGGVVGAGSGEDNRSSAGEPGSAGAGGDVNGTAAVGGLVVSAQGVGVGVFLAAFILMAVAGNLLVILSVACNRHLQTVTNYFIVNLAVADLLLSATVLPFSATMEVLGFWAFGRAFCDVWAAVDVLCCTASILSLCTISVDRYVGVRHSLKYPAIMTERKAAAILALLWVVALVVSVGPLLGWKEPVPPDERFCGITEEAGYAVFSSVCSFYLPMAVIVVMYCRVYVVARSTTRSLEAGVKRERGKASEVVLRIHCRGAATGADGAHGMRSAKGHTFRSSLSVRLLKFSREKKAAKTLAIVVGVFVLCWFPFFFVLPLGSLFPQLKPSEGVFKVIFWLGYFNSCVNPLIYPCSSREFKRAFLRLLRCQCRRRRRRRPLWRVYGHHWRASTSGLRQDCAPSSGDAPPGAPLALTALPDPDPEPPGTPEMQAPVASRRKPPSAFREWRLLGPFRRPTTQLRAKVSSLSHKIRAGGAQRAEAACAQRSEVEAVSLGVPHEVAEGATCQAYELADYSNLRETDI
procedure.text: Measurement of α1D adrenergic receptor binding inhibitory activity ([3H]-prazosin binding to membrane fraction of CHO-K1 cells expressing the receptor)
measurement.context: compound at 1 μM; [3H]-prazosin 2.5 nM; membrane fraction 20 μg/well; room temperature, 1 hr; read-out: Binding inhibitory rate (%) (α1D adrenergic receptor binding inhibitory rate)
Where a name gives a salt, the structure may show the parent alone.
Hi! Could you send only the number? It should be in %, unit omitted.

C[C@H](c1ccc(F)cc1)n1cc(Cl)cc(C(N)=O)c1=N [Example 22, hydrochloride] : 96.1
N=c1c(C(N)=O)cc(Cl)cn1C1(c2ccccc2)CC1 [Example 15] : 62
C[C@H](c1cc(F)cc(F)c1)n1cc(Cl)cc(C(N)=O)c1=N [Example 14, hydrochloride] : 100

### Prompt Quick one: inhibition at 1 µM for N=c1c(C(N)=O)cc(Cl)cn1C1CCS(=O)(=O)c2ccc(Cl)cc21 (stereo not shown) [Example 30, hydrochloride] ?
### Response 96.9

### Prompt And then CC(c1ccsc1)n1cc(Cl)cc(C(N)=O)c1=N (stereo not shown) [Example 5, hydrochloride] , what is it?
### Response 79.4

### Prompt Same question for N=c1c(C(N)=O)cc(Cl)cn1C1CCc2ccc(Cl)cc21 (stereo not shown) [Example 2] please.
### Response 102

### Prompt Record: C[C@H](c1cccc(C#N)c1)n1cc(Cl)cc(C(N)=O)c1=N [Example 23, hydrochloride]
### Response 100

### Prompt Also need N#Cc1ccc2c(c1)C(n1cc(Cl)cc(C(N)=O)c1=N)CC2 (stereo not shown) [Example 19, hydrochloride] , thanks.
### Response 94.8

### Prompt Do the same for CC(c1cccc(Cl)c1)n1cc(Cl)cc(C(N)=O)c1=N (stereo not shown) [Example 1] please
### Response 100

### Prompt Now consider C[C@H](c1cccc(F)c1)n1cc(Cl)cc(C(N)=O)c1=N [Example 12, hydrochloride] and answer again.
### Response 97

Cited source for all entries: patent US20110039892A1
